# Test system: HEK-293T
# Assay explanation: Multiplex assay against HEK293T
# Assay type: toxicity, cell-based
# Setup conditions: human, 48 h, 1 µM, compound concentration 1 uM, replicate 2
Readout type: Total Cell Count
Please state the value as a number alone, without comment.

Request: Please report the recorded Total Cell Count for CC(C)N1CCC(C)(C)c2cc(C#Cc3ccc(C(=O)O)cc3)ccc21 .
Result: 358

Request: # iterate: COc1ccc(NS(=O)(=O)c2sc3ccc(Cl)cc3c2C)cc1N1CCNCC1.Cl
Result: 485

Request: Query CCn1c(-c2nonc2N)nc2cnc(Oc3cccc(NC(=O)c4ccc(OCCN5CCOCC5)cc4)c3)cc21 [GSK-269962A] next
Result: 329

Request: Now consider CNc1oc(-c2cccc3ccccc23)nc1C#N .
Result: 536

Request: Another molecule to look at: O=C(O)c1ccc2cc(-c3ccc(O)c(C45CC6CC(CC(C6)C4)C5)c3)ccc2c1 [O-DEMETHYLATED ADAPALENE]
Result: 390
